system.name: Hck (UniProt P08631)
Sequence (P08631 whole entry, looked up): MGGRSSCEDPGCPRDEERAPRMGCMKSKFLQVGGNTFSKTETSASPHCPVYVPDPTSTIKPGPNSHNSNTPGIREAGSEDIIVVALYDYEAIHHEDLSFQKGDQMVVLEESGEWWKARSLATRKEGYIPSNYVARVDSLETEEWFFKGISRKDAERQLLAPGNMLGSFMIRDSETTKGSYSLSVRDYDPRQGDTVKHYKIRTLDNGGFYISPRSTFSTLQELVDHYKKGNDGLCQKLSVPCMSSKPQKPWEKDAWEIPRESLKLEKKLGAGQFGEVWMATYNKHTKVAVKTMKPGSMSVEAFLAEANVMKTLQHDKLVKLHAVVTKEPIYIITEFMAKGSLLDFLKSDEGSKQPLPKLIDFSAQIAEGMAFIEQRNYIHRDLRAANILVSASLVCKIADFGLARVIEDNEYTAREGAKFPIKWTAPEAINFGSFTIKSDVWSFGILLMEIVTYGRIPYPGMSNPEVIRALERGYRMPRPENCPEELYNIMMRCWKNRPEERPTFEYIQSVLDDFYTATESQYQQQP
protocol.summary: phosphorylation enrichment, bacterial display (enrichment ratio); higher = better substrate or ligand; peptides without Tyr show the background
List of phosphorylation enrichment values.
// keep it numeric: no unit symbol after the value

Below are worked cases with known answers.
EIHTQYEAMAS [GFAP_Y242_R239H] : 0.539
RQNNSYTCYTA [SLC20A2_Y386_R382Q] : 0.694

Which phosphorylation enrichment is listed for ISRASYYRKGG [ALK_Y1282_Y1278S] ? 0.496

Which phosphorylation enrichment is listed for DSGKLYALDVL [INO80_Y1104] ? 0.58

Which phosphorylation enrichment is listed for PVEAAYQKVVA [HBB_Y131_Q128E] ? 0.612

Which phosphorylation enrichment is listed for HKLSYYEYDFE [BTK_Y40] ? 0.952

Which phosphorylation enrichment is listed for TFLRTYTDAMQ [TSPAN7_Y124] ? 0.506

----------
List of phosphorylation enrichment values.
system.name: EPHB1 (UniProt P54762)
Sequence (P54762 whole entry, looked up): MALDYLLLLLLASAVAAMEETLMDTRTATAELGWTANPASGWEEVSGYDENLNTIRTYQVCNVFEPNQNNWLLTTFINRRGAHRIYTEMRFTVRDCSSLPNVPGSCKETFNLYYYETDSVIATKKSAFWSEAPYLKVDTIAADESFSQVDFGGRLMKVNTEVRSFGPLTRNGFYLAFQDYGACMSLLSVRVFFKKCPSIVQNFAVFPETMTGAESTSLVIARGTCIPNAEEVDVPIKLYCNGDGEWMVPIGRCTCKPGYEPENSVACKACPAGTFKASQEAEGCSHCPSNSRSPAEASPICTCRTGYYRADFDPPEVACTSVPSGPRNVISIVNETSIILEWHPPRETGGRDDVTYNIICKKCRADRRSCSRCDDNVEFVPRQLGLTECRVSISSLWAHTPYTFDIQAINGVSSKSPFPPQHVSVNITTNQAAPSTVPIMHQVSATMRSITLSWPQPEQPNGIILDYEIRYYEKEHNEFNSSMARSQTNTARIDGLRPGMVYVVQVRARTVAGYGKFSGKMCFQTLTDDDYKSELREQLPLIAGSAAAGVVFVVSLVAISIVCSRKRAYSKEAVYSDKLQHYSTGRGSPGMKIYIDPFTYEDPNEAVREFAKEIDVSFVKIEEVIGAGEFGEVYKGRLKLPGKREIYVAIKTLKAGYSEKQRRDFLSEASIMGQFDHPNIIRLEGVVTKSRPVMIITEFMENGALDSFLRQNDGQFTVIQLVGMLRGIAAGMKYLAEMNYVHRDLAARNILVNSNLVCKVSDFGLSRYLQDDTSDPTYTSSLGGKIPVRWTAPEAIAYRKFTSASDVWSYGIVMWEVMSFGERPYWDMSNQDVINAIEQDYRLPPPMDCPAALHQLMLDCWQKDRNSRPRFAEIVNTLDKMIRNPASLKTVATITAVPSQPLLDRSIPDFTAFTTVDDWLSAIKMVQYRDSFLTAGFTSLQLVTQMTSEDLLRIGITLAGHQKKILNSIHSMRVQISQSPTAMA
protocol.summary: phosphorylation enrichment, bacterial display (enrichment ratio); higher = better substrate or ligand; peptides without Tyr show the background
// keep it numeric: no unit symbol after the value

Below are worked cases with known answers.
GKVADYIPQLP [GLS_Y249_A254P] : 0.468
GYRVCYTPDSR [PTPRF_Y451_Y450C] : 0.635
DWRQEYVLNEP [TGM1_Y267_S272P] : 0.407
VVIMLYGVDSR [PKD1_Y3143_G3139V] : 0.879
KKKKQYKGKYL [CASK_Y708_D710G] : 0.502

Which phosphorylation enrichment is listed for ALLTKYSHSSM [DSCC1_Y374] ? 0.442

Which phosphorylation enrichment is listed for ISIFHCAKGQP [MPZ_Y82_Y82C] ? 0.773

Which phosphorylation enrichment is listed for CPTIHYNYMCN [TP53_Y234_T230P] ? 0.603

----------
List of phosphorylation enrichment values.
system.name: Fes (UniProt P07332)
Sequence (P07332 whole entry, looked up): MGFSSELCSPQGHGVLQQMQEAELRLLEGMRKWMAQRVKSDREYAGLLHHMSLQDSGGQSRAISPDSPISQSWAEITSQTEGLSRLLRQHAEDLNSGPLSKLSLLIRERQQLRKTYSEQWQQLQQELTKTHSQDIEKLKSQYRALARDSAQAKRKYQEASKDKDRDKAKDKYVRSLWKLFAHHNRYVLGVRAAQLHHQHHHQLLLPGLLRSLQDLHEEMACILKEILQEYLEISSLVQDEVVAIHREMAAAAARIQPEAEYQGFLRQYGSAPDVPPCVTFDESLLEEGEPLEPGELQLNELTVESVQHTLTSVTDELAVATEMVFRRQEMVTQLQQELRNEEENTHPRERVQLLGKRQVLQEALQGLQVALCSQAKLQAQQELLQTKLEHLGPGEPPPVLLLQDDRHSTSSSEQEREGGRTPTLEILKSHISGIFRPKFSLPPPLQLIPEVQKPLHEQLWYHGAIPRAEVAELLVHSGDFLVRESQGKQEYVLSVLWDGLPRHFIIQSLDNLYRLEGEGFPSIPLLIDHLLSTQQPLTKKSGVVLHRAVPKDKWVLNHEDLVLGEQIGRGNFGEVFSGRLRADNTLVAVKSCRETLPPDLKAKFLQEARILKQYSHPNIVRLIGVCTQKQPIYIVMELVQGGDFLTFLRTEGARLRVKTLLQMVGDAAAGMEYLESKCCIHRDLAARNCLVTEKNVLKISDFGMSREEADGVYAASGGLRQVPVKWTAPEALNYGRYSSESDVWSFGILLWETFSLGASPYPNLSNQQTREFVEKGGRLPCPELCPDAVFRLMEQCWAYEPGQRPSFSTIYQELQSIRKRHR
protocol.summary: phosphorylation enrichment, bacterial display (enrichment ratio); higher = better substrate or ligand; peptides without Tyr show the background
// keep it numeric: no unit symbol after the value

Below are worked cases with known answers.
RKTAKYLLKGE [CDH5_Y82_N79T] : 0.644
LADKPYTFEFF [FXN_Y118_D122Y_YF] : 1.82
PKDSAYVTWEP : 1.4
DWQQEYVLNES [TGM1_Y267_R264Q] : 1.45
DKMEAYNINET [TEKT4_Y210_D213N] : 1.27
CFSSEYHFVGG [CTSC_Y345_Y340C_YF] : 1.11
VKRNRYKDILP [PTPN12_Y64_K61R] : 0.561
LHAAAYQNALA [UQCRC2_Y182_R183Q] : 0.715
PLFKIYVAELI [MRPL28_Y230] : 2.35
DNEYAYLKAII [HNF4A_Y288] : 1.01

Let's switch to this sequence now.
Which phosphorylation enrichment is listed for EQKKYYNAVKK [SCN5A_Y1495_M1498V] ? 0.63

----------
system.name: Fes (UniProt P07332)
protocol.summary: phosphorylation enrichment, bacterial display (enrichment ratio); higher = better substrate or ligand; peptides without Tyr show the background
metric: phosphorylation enrichment

Below are worked cases with known answers.
KWTVDYLGQVG [TYW5_Y48_S50G] : 0.774
ERMKVYVPIGF [EPHX1_Y393_T396I] : 0.742
CSRRLYQLTKL [AR_Y858_F857L] : 0.769
PLDGEYFTLRI [TP53_Y327_Q331R] : 2.19
NSIGNYFKPWF [DHCR24_Y299_YF] : 0.99
VIESSYTSADG [DHCR7_Y382_C380S] : 0.961

Let's switch to this sequence now.
Which phosphorylation enrichment is listed for VGTKRYMAPDV [ACVRL1_Y375_E379D] ? 0.491

----------
System: AncSZ
protocol.summary: phosphorylation enrichment, bacterial display (enrichment ratio); higher = better substrate or ligand; peptides without Tyr show the background
phosphorylation enrichment below 0.9 gives label 0; phosphorylation enrichment at or above it gives label 1.

Solved entries:
RKPDIYGRLAS [MCM4_Y459_E460G] : label 0
IDAICYFRMEN [NPHS2_Y194_YF] : label 1
ARRMEYLASQK [FGFR2_Y616_G613R] : label 0
DRLASYLEKVR [KRT13_Y118] : label 0
KELAPYDENWF [RPS19_Y48] : label 1

Is phosphorylation enrichment for FIIFIYAMKKK [SLCO1B1_Y645_L643F_YF] at or above 0.9? label 1

Is phosphorylation enrichment for NTGVFYDLFGG [PTPN11_Y63_D61V_YF] at or above 0.9? label 1

Is phosphorylation enrichment for ADRSCYDLSCR [GARS1_Y467_H472R] at or above 0.9? label 0

Is phosphorylation enrichment for NSIGNYFKPWF [DHCR24_Y299_YF] at or above 0.9? label 1

Is phosphorylation enrichment for CEAVEYLESKQ [BTK_Y511_M509V] at or above 0.9? label 1

Is phosphorylation enrichment for LYEDHYLLGTS [ASS1_Y87_R86H] at or above 0.9? label 1

Is phosphorylation enrichment for CLRIDYERVSQ [DSP_Y1542_R1537C] at or above 0.9? label 1

Is phosphorylation enrichment for TSYQMYDKGLV [IARS2_Y231_F227S] at or above 0.9? label 1

Is phosphorylation enrichment for EDASEYYENYI [PARP4_Y214_F215Y] at or above 0.9? label 1

Is phosphorylation enrichment for FFNSEYGELSE [FLT4_Y1337_YF] at or above 0.9? label 1

Is phosphorylation enrichment for SRDPFYEMLAA [CYTH1_Y382] at or above 0.9? label 1

Is phosphorylation enrichment for YDCGMYSHLQG [LGR4_Y848] at or above 0.9? label 1

Is phosphorylation enrichment for ECIEFYELDKK [PMM2_Y145_R141C] at or above 0.9? label 1

Is phosphorylation enrichment for RSSGGYEPRGR [FUS_Y239] at or above 0.9? label 0

Is phosphorylation enrichment for DDPRTYQKYGY [OAS1_Y362_R361T] at or above 0.9? label 0

Is phosphorylation enrichment for SDYYAYSPVRE [H6PD_Y449] at or above 0.9? label 1

Is phosphorylation enrichment for ERMKVYVPIGF [EPHX1_Y393_T396I] at or above 0.9? label 0

Is phosphorylation enrichment for GIVEDYRPPFC [ACVRL1_Y421_Y426C] at or above 0.9? label 1

Is phosphorylation enrichment for RGEKQYLAAPL [ALOX12_Y295] at or above 0.9? label 0

Is phosphorylation enrichment for NIQKKYFRAIL [CHD7_Y1217_YF] at or above 0.9? label 0

Is phosphorylation enrichment for ITGNGYYFRVF [MYBPC3_Y1135_I1131T] at or above 0.9? label 1

Is phosphorylation enrichment for GNLLIYTEFGN [HGD_Y166_K171N] at or above 0.9? label 1

Is phosphorylation enrichment for TDTAAYEERVR [SPTB_Y474] at or above 0.9? label 1

----------
system.name: SHP2-C SH2;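 further: peptide library displayed on the E. coli surface as eCPX fusions, selected cells deep-sequenced, score is each peptide's frequency after selection divided by its frequency in the input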
protocol.summary: SH2 binding enrichment of the phosphorylated peptide, bacterial display (enrichment ratio); higher = better substrate or ligand; peptides without Tyr show the background
List of SH2 binding enrichment values.
// keep it numeric: no unit symbol after the value

GADAIYDHVNE [UQCR10_Y44_I47V] : 0.648

Which SH2 binding enrichment is listed for LERYIYNPEEF [HLA-DPB1_Y59_R61P] ? 0.851

Which SH2 binding enrichment is listed for GSESDYIIMPN [SCARB1_Y133_V135I] ? 0.873

Which SH2 binding enrichment is listed for NQDRTYFERVR [SPEN_Y632_S635R_YF] ? 0.547

Which SH2 binding enrichment is listed for VPVNGYQPVTA [ROR2_Y824_P828T] ? 0.635

Which SH2 binding enrichment is listed for KLFFIYTPGTT [SLC27A4_Y245_S247P_YF] ? 0.565

Which SH2 binding enrichment is listed for ECIEFYELDKK [PMM2_Y145_R141C] ? 0.662

----------
system.name: FGFR3 (UniProt P22607)
Sequence (P22607 whole entry, looked up): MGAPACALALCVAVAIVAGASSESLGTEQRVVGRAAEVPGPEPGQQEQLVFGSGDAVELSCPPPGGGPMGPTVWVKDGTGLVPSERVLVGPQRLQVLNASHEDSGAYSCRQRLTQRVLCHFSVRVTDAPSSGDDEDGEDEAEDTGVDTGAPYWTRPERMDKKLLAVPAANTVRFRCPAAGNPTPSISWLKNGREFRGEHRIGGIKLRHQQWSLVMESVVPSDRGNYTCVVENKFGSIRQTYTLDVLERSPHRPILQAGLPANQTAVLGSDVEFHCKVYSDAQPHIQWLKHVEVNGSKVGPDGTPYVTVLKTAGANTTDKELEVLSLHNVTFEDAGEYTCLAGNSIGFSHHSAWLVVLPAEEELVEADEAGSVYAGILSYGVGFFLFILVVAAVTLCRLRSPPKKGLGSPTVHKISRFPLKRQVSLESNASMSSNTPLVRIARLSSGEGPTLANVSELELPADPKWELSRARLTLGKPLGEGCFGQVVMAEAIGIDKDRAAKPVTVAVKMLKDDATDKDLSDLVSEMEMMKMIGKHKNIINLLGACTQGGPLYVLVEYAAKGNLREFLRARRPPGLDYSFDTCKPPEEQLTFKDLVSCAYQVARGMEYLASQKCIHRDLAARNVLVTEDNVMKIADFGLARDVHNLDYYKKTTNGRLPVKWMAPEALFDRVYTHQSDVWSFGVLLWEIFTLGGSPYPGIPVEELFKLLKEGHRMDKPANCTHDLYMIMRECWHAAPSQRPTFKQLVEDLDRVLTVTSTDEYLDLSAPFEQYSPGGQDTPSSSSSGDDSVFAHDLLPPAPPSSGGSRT
protocol.summary: phosphorylation enrichment, bacterial display (enrichment ratio); higher = better substrate or ligand; peptides without Tyr show the background
metric: phosphorylation enrichment

Below are worked cases with known answers.
SVTCTYSPALI [TP53_Y126_N131I] : 0.954
RESFKYLPSSL [CXXC1_Y218_F219L_YF] : 0.431
RPGSGYTNIMQ [PKLR_Y564_R569Q] : 0.517

Which phosphorylation enrichment is listed for TQFWRYFAGNL [SLC25A5_Y112_L111R] ? 0.655

----------
system.name: EPHB1 (UniProt P54762)
protocol.summary: phosphorylation enrichment, bacterial display (enrichment ratio); higher = better substrate or ligand; peptides without Tyr show the background
phosphorylation enrichment below 0.8 gives -1; phosphorylation enrichment at or above it gives 1.

EVVGRYSVHYA [MLH1_Y183_N187Y] : -1
SVDRDYVLKSA [HTATIP2_Y111_R106S] : -1
LLANAYIYVVQ [L1CAM_Y418] : 1

Is phosphorylation enrichment for VILARYGPAWR [CYP2D6_Y124_F120I] at or above 0.8? -1

Is phosphorylation enrichment for GGRIDYIAGLD [APRT_Y60] at or above 0.8? 1
